Target: UniProt P08581
Sequence (P08581 whole entry): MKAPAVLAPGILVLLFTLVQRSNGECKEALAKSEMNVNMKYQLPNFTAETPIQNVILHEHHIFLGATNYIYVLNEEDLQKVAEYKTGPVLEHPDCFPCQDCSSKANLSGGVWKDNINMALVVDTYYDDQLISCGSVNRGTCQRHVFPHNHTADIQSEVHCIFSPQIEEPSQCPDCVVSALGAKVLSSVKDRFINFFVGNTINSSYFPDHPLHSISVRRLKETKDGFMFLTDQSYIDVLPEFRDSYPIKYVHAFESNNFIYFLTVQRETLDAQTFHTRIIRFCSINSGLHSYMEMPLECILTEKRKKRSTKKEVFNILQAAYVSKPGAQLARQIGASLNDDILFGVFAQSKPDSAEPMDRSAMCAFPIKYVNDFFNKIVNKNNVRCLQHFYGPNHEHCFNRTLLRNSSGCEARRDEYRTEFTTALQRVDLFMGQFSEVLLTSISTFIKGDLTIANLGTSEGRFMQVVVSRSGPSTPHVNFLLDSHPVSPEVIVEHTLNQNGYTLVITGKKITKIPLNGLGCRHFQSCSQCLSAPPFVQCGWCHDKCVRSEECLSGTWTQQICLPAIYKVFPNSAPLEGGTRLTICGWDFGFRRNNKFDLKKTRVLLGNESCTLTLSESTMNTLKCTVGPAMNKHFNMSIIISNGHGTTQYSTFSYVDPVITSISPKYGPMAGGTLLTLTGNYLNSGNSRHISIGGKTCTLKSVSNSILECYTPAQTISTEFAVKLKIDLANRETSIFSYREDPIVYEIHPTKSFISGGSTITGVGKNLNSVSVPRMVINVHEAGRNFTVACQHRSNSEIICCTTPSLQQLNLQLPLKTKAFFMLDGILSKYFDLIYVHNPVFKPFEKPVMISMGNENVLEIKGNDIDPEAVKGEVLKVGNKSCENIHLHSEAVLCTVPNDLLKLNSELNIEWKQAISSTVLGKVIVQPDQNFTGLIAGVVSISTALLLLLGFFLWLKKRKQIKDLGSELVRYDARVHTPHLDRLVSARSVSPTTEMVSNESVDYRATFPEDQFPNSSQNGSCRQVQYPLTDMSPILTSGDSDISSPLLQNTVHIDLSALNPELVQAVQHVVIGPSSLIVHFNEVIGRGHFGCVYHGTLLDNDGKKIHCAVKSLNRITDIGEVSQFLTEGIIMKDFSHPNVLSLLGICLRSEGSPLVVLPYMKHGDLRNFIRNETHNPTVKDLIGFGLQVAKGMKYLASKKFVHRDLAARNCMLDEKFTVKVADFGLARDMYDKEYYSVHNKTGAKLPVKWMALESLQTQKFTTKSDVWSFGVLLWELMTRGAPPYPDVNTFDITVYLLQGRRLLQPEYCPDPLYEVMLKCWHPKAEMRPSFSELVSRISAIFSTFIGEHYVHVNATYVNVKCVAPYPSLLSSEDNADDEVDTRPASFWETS
pKd: −log10 of the molar value.
reportedProperty: pKd

>  <entrySmiles>
O=C(O)CSc1ncnc2cc(-c3cc4ccccc4s3)sc12

>  <reportedProperty>
pKd

>  <experimentalValue>
< 5.00

$$$$

====

Target: Wee1-like protein kinase (Homo sapiens, UniProt P30291)
Sequence (P30291 whole entry): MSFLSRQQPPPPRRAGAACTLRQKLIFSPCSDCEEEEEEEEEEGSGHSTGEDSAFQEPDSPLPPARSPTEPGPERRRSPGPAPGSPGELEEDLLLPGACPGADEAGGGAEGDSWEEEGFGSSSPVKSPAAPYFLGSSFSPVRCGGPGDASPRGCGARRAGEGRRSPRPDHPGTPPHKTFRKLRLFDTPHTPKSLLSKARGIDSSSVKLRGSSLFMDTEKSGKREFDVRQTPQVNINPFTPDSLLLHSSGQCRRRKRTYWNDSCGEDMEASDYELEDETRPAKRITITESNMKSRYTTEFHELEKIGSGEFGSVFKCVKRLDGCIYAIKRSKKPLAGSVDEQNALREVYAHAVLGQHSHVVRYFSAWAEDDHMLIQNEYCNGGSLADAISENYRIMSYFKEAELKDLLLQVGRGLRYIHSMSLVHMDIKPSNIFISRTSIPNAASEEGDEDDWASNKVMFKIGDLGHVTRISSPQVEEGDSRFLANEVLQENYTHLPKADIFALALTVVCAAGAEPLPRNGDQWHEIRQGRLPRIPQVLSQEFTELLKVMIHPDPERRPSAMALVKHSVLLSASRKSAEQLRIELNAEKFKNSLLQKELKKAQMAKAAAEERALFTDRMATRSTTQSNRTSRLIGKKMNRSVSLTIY

>  <entrySmiles>
O=C(O)CSc1ncnc2cc(-c3cc4ccccc4s3)sc12

>  <systemUnderTest>
Wee1-like protein kinase (Homo sapiens, UniProt P30291)

>  <IC50>
> 10 µM

$$$$

====

Quick record of IC50 values for Serine/threonine-protein kinase 17B (Homo sapiens).

>  <entrySmiles>
O=C(O)CSc1ncnc2cc(-c3ccc(C(F)(F)F)cc3)sc12

>  <relationSymbol>
=

>  <IC50 [nM]>
340

$$$$
>  <entrySmiles>
CCOC(=O)c1ccc(-c2cc3ncnc(SCC(=O)O)c3s2)cc1

>  <relationSymbol>
=

>  <IC50 [nM]>
870

$$$$
>  <entrySmiles>
CSc1ccc(-c2cc3ncnc(NCC(=O)O)c3s2)cc1

>  <relationSymbol>
>

>  <IC50 [nM]>
10000

$$$$
>  <entrySmiles>
COc1ccc(-c2cc3ncnc(SCC(=O)O)c3s2)cc1F

>  <relationSymbol>
=

>  <IC50 [nM]>
700

$$$$
>  <entrySmiles>
O=C(O)CSc1ncnc2cc(-c3ccc(Cl)c(Cl)c3)sc12

>  <relationSymbol>
=

>  <IC50 [nM]>
310

$$$$
>  <entrySmiles>
O=C(O)CSc1ncnc2cc(-c3cccc(N4CCOCC4)c3)sc12

>  <relationSymbol>
=

>  <IC50 [nM]>
2900

$$$$
>  <entrySmiles>
CSc1cccc(-c2cc3ncnc(SCC(=O)O)c3s2)c1

>  <relationSymbol>
=

>  <IC50 [nM]>
500

$$$$
>  <entrySmiles>
O=C(O)CSc1ncnc2cc(-c3ccccc3F)sc12

>  <relationSymbol>
=

>  <IC50 [nM]>
1200

$$$$
>  <entrySmiles>
CSc1ccc(-c2cc3ncnc(SCC(=O)O)c3s2)cc1

>  <relationSymbol>
=

>  <IC50 [nM]>
210

$$$$
>  <entrySmiles>
O=C(O)CSc1ncnc2cc(-c3ccc(F)c(F)c3)sc12

>  <relationSymbol>
=

>  <IC50 [nM]>
820

$$$$
>  <entrySmiles>
O=C(O)CSc1ncnc2cc(-c3cc4ccccc4s3)sc12

>  <relationSymbol>
=

>  <IC50 [nM]>
190

$$$$
>  <entrySmiles>
O=C(O)CSc1ncnc2cc(-c3cccc(F)c3)sc12

>  <relationSymbol>
=

>  <IC50 [nM]>
980

$$$$

====

Target: Serine/threonine-protein kinase 17B (Homo sapiens, UniProt O94768)
Sequence (O94768 whole entry, the tested form may be a part): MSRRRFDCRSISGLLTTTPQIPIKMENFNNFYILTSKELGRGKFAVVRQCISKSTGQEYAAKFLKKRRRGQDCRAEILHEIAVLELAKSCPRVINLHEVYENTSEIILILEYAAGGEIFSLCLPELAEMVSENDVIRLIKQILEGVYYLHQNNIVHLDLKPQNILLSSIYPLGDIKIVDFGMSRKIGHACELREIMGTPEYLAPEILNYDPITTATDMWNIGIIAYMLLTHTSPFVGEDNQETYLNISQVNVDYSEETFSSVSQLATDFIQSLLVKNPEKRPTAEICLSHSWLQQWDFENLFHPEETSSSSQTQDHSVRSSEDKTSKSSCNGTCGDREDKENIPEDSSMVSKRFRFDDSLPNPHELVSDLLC
Assay: Binding affinity to N-terminal His-tagged STK17B kinase domain (25 to 329 residues) (unknown origin) expressed in Escherichia coli by KINOMEscan scanMAX assay

>  <entrySmiles>
O=C(O)CSc1ncnc2cc(-c3cc4ccccc4s3)sc12

>  <Kd, nM>
5.6

$$$$
>  <entrySmiles>
O=C(O)CSc1ncnc2sc(-c3cc4ccccc4s3)cc12

>  <Kd, nM>
910

$$$$

====

Assay: Stability in mouse liver microsomes assessed as compound remaining at 0.1 mM in presence of NADPH regeneration system after 30 mins by LC-MS/MS analysis
Type: ADME, Microsome
Settings: read-out: Stabilty
Measured remaining at 0.5 h, 100 µM by item

>  <entrySmiles>
COc1ccccc1-c1cc2ncnc(SCC(=O)O)c2s1

>  <remaining at 0.5 h, 100 µM [%]>
24

$$$$
>  <entrySmiles>
CCOC(=O)c1ccc(-c2cc3ncnc(SCC(=O)O)c3s2)cc1

>  <remaining at 0.5 h, 100 µM [%]>
0

$$$$
>  <entrySmiles>
O=C(O)CSc1ncnc2cc(-c3ccccc3F)sc12

>  <remaining at 0.5 h, 100 µM [%]>
45

$$$$
>  <entrySmiles>
O=C(O)CSc1ncnc2cc(-c3cccs3)sc12

>  <remaining at 0.5 h, 100 µM [%]>
47

$$$$
>  <entrySmiles>
CC(C)c1ccc(-c2cc3ncnc(SCC(=O)O)c3s2)cc1

>  <remaining at 0.5 h, 100 µM [%]>
35

$$$$
>  <entrySmiles>
O=C(O)CSc1ncnc2cc(-c3ccc(C(F)(F)F)cc3)sc12

>  <remaining at 0.5 h, 100 µM [%]>
88

$$$$
